- testSystem: Acetylcholinesterase (Homo sapiens)
- Sequence (P22303 whole entry): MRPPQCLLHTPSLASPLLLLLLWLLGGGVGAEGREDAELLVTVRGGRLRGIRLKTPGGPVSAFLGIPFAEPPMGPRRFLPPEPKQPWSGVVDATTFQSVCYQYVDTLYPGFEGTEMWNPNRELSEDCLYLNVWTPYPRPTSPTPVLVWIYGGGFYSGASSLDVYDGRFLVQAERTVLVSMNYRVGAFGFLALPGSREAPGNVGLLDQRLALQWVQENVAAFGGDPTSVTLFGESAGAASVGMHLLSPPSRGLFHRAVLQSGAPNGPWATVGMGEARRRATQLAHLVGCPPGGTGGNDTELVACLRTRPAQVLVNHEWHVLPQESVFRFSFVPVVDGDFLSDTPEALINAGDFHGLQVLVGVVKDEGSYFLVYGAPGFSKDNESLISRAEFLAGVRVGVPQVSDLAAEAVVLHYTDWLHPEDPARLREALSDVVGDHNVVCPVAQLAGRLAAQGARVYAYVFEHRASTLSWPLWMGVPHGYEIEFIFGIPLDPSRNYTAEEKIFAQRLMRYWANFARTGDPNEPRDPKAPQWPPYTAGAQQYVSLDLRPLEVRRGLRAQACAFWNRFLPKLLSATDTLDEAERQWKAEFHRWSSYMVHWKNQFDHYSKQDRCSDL
- assayName: Inhibition of human erythrocyte recombinant AChE by modified Ellman's method

| smiles | IC50 (µM) |
| --- | --- |
| C(=C\C[n+]1cccc2ccccc21)/C[n+]1cccc2ccccc21 | 6 |
| c1ccc2c(c1)ccc[n+]2CCCCCCCC[n+]1cccc2ccccc21 | 0.08 |
| c1ccc2c(c1)ccc[n+]2CCCC[n+]1cccc2ccccc21 | 38 |
